Target: Sodium channel protein type 1 subunit alpha (Homo sapiens)
Experiment: Inhibition of human Nav1.1 in inactivated condition by automated patch-clamp assay
pIC50: −log10 of the molar value.

| compound | test.system | pIC50 |
| --- | --- | --- |
| CC(C)(C)NC(=O)OC(Cc1ccccc1)C(=O)Nc1cnc2ccccc2c1 (stereo unspecified) | Sodium channel protein type 1 subunit alpha (Homo sapiens) | < 4.00 |

----------
Target: Sodium channel protein type 9 subunit alpha (Homo sapiens)
Sequence (Q15858 whole entry): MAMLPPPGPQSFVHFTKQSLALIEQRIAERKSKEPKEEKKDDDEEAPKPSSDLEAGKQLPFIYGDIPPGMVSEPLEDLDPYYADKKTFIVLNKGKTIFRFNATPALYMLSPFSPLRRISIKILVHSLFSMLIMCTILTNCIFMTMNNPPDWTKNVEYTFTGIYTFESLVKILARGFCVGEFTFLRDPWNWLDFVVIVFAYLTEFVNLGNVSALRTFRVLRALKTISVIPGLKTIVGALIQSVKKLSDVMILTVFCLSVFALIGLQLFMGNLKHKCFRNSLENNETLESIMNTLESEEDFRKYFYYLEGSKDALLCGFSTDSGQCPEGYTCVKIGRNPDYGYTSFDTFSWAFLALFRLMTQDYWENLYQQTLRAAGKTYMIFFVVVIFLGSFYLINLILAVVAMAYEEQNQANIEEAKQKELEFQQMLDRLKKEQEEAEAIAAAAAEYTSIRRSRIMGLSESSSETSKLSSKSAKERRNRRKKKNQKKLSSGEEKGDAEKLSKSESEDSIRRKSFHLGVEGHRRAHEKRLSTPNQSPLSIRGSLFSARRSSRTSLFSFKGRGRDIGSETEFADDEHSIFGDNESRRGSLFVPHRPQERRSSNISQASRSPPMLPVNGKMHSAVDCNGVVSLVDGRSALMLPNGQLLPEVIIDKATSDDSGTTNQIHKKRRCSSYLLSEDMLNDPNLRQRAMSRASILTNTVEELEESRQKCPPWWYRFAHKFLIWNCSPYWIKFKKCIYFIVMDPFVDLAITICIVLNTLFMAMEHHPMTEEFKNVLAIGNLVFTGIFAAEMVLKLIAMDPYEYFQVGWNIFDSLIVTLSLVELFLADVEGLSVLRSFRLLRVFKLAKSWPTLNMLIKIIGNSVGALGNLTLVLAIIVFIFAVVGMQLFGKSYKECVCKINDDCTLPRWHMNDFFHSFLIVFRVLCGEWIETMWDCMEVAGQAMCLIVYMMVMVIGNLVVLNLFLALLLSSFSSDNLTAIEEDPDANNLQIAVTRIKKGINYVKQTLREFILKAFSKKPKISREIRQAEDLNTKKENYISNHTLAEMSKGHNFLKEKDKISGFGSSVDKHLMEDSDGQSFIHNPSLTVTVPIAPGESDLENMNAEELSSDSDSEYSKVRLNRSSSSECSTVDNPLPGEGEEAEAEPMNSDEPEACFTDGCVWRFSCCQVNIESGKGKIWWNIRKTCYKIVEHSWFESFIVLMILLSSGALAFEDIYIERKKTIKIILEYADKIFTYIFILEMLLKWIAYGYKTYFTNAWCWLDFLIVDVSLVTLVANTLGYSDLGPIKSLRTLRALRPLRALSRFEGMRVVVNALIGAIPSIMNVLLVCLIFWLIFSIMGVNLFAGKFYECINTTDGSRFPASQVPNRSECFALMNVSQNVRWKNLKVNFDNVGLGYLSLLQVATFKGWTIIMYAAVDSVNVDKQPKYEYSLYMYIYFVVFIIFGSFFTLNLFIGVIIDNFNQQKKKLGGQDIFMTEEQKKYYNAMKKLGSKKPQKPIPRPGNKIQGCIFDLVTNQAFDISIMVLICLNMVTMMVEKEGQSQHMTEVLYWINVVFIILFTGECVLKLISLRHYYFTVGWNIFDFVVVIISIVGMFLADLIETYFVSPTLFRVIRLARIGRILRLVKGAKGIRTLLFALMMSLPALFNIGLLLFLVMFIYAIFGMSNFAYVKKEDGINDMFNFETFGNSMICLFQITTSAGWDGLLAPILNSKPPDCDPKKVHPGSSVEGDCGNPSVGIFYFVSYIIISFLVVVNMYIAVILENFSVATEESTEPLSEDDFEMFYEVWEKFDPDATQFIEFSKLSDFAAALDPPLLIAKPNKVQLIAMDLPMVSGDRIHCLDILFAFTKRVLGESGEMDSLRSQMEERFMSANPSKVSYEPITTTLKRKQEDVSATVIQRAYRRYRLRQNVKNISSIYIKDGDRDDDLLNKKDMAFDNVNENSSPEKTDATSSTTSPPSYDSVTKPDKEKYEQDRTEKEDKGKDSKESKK
Assay: Inhibition of human Nav1.7 in inactivated condition by manual patch-clamp assay
pIC50: −log10 of the molar value.
outcome.measure: pIC50

| compound | numeric.result |
| --- | --- |
| COC[C@@H](NC(C)=O)C(=O)NCc1ccccc1 [LACOSAMIDE] | 3.74 |
| Cc1nn(-c2cnc(OCC(C)C)c(Cl)c2)c2ccc(C(=O)NS(C)(=O)=O)cc12 | 7.66 |

Sourced from ChEMBL document CHEMBL5223125
